B1: LINE1-mini (parent)
chain: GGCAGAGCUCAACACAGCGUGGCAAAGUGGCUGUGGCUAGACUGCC

Variants of: B1
Test: self-cleavage, relative activity (ratio to wild type); higher = more cleavage; in vitro, sequencing; the parent is a self-cleaving ribozyme
quantity: self-cleavage
When you answer, write just the number.

Solved entries:
mutations | measuredValue
A14G G22U | 0.98
C8G G36A | 0.18
G21A U32G | 0.1
C8A A24U | 0.34
C23A G33A | 0.78

// next item, self-cleavage requested
Exercise: I am curious: what self-cleavage value has been reported for G19C G35C ?
Key: 0.17

Source of measurements: the RNAGym collection of RNA variant scans (doi:10.7554/elife.90254)
